Tested on: irritable bowel syndrome rats
Experiment: Irritable bowel syndrome rats induced by early maternal separation
Type: in vivo, SD rats
Parameters: scale not given here
Conditions: IBS rats; low dose 7.5 mg/kg ig 20 d; 40 mm Hg
Attribute: AWR scoring

# get_value(readout='AWR scoring', item= `O=C(Nc1ccc(Cl)cc1)C1CCN(C(=O)c2ccc(O)cc2)CC1` ) 3.43±0.30

Item: `O=C(Nc1cccc(Cl)c1)C1CCN(C(=O)c2cccc(O)c2)CC1` 3.00±0.49^∗∗

And then `Cn1c(C(=O)N2CCC(C(=O)Nc3cccc(Cl)c3)CC2)cc2ccccc21` , what is it? 3.20±0.43

`O=C(Nc1cccc(Cl)c1)C1CCN(C(=O)c2cc(O)ccc2F)CC1` ? 3.02±0.53^∗

Next up: `O=C(Nc1cccc(Cl)c1)C1CCN(C(=O)c2cc3ccccc3[nH]2)CC1` 3.26±0.39

Now give it for `O=C(Nc1cccc(Cl)c1)C1CCN(C(=O)c2cc3cc(F)ccc3[nH]2)CC1` too. 3.06±0.38

###

Recorded measurements of Accumulated immobility time, one per entry
Test system: mice tail suspension test
Assay: Mice tail suspension test
Format: in vivo, ICR mice
Details: final 4 min of 6 min, 5 mg/kg intragastric once per day 10 d
Where a name gives a salt, the structure may show the parent alone.
Note: state the figure and append the unit.

Worked cases, Accumulated immobility time given:
Enter reported Accumulated immobility time observed with mice tail suspension test for O=C(Nc1cccc(Cl)c1)C1CCN(C(=O)c2ccc3ccccc3c2)CC1 [MAGLZ-II-17] 89.87±29.68 S

Next molecule: O=C(Nc1cccc(Cl)c1)C1CCN(C(=O)c2cccc(O)c2)CC1 [MAGLZ-II-11] 72.81±23.49 S

Follow-up item: CNCCC(Oc1ccc(C(F)(F)F)cc1)c1ccccc1 (stereo not drawn) [Fluoxetine hydrochloride capsule, Fluoxetine hydrochloride, reference compound] 92.19±23.63 S

Request: O=C(Nc1cccc(O)c1)C1CCN(C(=O)c2ccc(Cl)cc2)CC1 [MAGLZ-II-06] 90.73±30.51 S

# iterate: COc1cccc(C(=O)N2CCC(C(=O)Nc3ccc(Cl)cc3)CC2)c1 [MAGLZ-II-07] 89.66±31.52 S

Turning to the following molecule.
Param readout= Accumulated immobility time; system= mice tail suspension test; entry= O=C(Nc1cccc(Cl)c1)C1CCN(C(=O)c2cc3ccccc3[nH]2)CC1 [MAGLZ-II-18] ; returns value. 79.68±25.72 S

###

System: ulcerative colitis mice
Assay: Mice ulcerative colitis (DSS)
Type: in vivo, BALB/c mice
Settings: DSS mice; low dose 7.5 mg/kg ig; serum, ELISA
Recorded IL-1 content by entry
Give the value in pg/mL but do not write pg/mL after it.

Before answering, review these 5 worked examples.
May I ask what IL-1 content has been recorded for `O=C(Nc1cccc(Cl)c1)C1CCN(C(=O)c2cccc(O)c2)CC1` ? 44.57

Please give the result for `O=C(Nc1cccc(Cl)c1)C1CCN(C(=O)c2cc3cc(F)ccc3[nH]2)CC1` too. 47.32

Likewise for `O=C(Nc1cccc(Cl)c1)C1CCN(C(=O)c2cc(O)ccc2F)CC1` ? 42.01

Try `O=C(Nc1cccc(Cl)c1)C1CCN(C(=O)c2cc3ccccc3[nH]2)CC1` next. 46.15

# repeat for `Cn1c(C(=O)N2CCC(C(=O)Nc3cccc(Cl)c3)CC2)cc2ccccc21` 48.08

We next turn to a different compound, shown below.
What value of measured IL-1 content is listed for `O=C(Nc1ccc(Cl)cc1)C1CCN(C(=O)c2ccc(O)cc2)CC1` ? 51.81

###

Test system: irritable bowel syndrome rats
Test: Irritable bowel syndrome rats induced by early maternal separation
Format: in vivo, SD rats
Details: IBS rats; middle dose 15 mg/kg ig 20 d
# key: entry, value: Colon 5-HT

Find the recorded Colon 5-HT belonging to `O=C(Nc1ccc(Cl)cc1)C1CCN(C(=O)c2ccc(O)cc2)CC1` and report it. 20.97 ± 2.24 µg/mg

Try this compound next: `O=C(Nc1cccc(Cl)c1)C1CCN(C(=O)c2cccc(O)c2)CC1` 14.33±2.10^∗∗∗ µg/mg

###

Pain threshold values, listed per item
System: mice with inflammatory pain
Assay: Pain threshold of mice with inflammatory pain (complete Freund's adjuvant)
Format: in vivo, SD mice
Conditions: complete Freund's adjuvant paw model; low dose 7.5 mg/kg ig once per day; 3 d

Here are 5 compounds together with their reported answers.
Value lookup for Pain threshold; key = `O=C(Nc1cccc(Cl)c1)C1CCN(C(=O)c2cccc(O)c2)CC1` 9.00±0.73^∗∗∗ s

`Cn1c(C(=O)N2CCC(C(=O)Nc3cccc(Cl)c3)CC2)cc2ccccc21` , same question. 7.98±1.21^∗ s

One more compound: `O=C(Nc1ccc(Cl)cc1)C1CCN(C(=O)c2ccc(O)cc2)CC1` 7.15 ± 0.59 s

Repeat with `O=C(Nc1cccc(Cl)c1)C1CCN(C(=O)c2cc3ccccc3[nH]2)CC1` 8.12±1.29^∗ s

Queued: `O=C(Nc1cccc(Cl)c1)C1CCN(C(=O)c2cc3cc(F)ccc3[nH]2)CC1` 8.44±1.03^∗∗∗ s

Now for another entry.
Which Pain threshold value belongs to `O=C(Nc1cccc(Cl)c1)C1CCN(C(=O)c2cc(O)ccc2F)CC1` ? 8.87±0.74^∗∗∗ s

###

This section presents compounds with their documented Pain threshold values.
Tested on: mice pain response induced by hot plate
Test: Mice pain response induced by hot plate
Assay type: in vivo, ICR mice
Conditions: hot plate 55°C; middle dose 15 mg/kg ig 7 d; 90 min

Form field: reported Pain threshold of `O=C(Nc1ccc(Cl)cc1)C1CCN(C(=O)c2ccc(O)cc2)CC1` 22.43 ± 5.31 s

How about `O=C(Nc1cccc(Cl)c1)C1CCN(C(=O)c2cccc(O)c2)CC1` ? 46.41 ± 5.36 s

What do we get for `Cn1c(C(=O)N2CCC(C(=O)Nc3cccc(Cl)c3)CC2)cc2ccccc21` ? 28.66 ± 8.73 s

***
Report Pain threshold for `O=C(Nc1cccc(Cl)c1)C1CCN(C(=O)c2cc(O)ccc2F)CC1` please. 43.71 ± 5.87 s

Try `O=C(Nc1cccc(Cl)c1)C1CCN(C(=O)c2cc3cc(F)ccc3[nH]2)CC1` next. 45.86 ± 7.09 s

Now consider `O=C(Nc1cccc(Cl)c1)C1CCN(C(=O)c2cc3ccccc3[nH]2)CC1` and answer again. 27.58 ± 7.71 s

###

Colon 5-HT values, listed per item
System: irritable bowel syndrome rats
Experiment: Irritable bowel syndrome rats induced by early maternal separation
Type: in vivo, SD rats
Conditions: IBS rats; low dose 7.5 mg/kg ig 20 d
Record the value in µg/mg, omitting the unit from your answer.

Would you mind telling me what Colon 5-HT value was observed for `O=C(Nc1cccc(Cl)c1)C1CCN(C(=O)c2cc3ccccc3[nH]2)CC1` ? 21.91

Similarly, `Cn1c(C(=O)N2CCC(C(=O)Nc3cccc(Cl)c3)CC2)cc2ccccc21` ? 16.84

Note, next up: `O=C(Nc1ccc(Cl)cc1)C1CCN(C(=O)c2ccc(O)cc2)CC1` 21.44

Moving on to the next molecule.
Look at this molecule and give its reported Colon 5-HT. `O=C(Nc1cccc(Cl)c1)C1CCN(C(=O)c2cc3cc(F)ccc3[nH]2)CC1` 16.43

###

Test system: mice writhing caused by acetic acid
Assay: Mice writhing caused by acetic acid
Conditions: middle dose 15 mg/kg ig, 1 h before 0.7% acetic acid ip; within 20 min
The reader will find reported Writhing times values listed item by item below.

Example entries and their recorded answers appear below.
Query (molecule): O=C(Nc1cccc(Cl)c1)C1CCN(C(=O)c2cc(O)ccc2F)CC1 [MAGLZ-II-11 (a)] ; field requested: Writhing times 18.6±14.6

Param item: O=C(Nc1cccc(Cl)c1)C1CCN(C(=O)c2cc3ccccc3[nH]2)CC1 [MAGLZ-II-18] 21.8±12.4

Now consider O=C(Nc1cccc(Cl)c1)C1CCN(C(=O)c2cccc(O)c2)CC1 [MAGLZ-II-11] and answer again. 17.5±9.6

Try the molecule O=C(Nc1cccc(Cl)c1)C1CCN(C(=O)c2cc3cc(F)ccc3[nH]2)CC1 [MAGLZ-II-18 (a)] 20.8±12.5

Subsequent entry: O=C(Nc1ccc(Cl)cc1)C1CCN(C(=O)c2ccc(O)cc2)CC1 [MAGLZ-II-10] 32.8±11.6

New cases:
Param item = Cn1c(C(=O)N2CCC(C(=O)Nc3cccc(Cl)c3)CC2)cc2ccccc21 [MAGLZ-II-18 (c)] ; retrieve measured Writhing times. 24.9±12.2

###

Each entry below lists one item and its recorded content in the brain (tissue distribution) value.
Assay: Tissue distribution test in mice
Type: in vivo
Set-up: unit not given here
Details: 16 mg/kg subcutaneous injection, 2.0 h
Form: value (number only, do not type unit).

Any idea what its content in the brain (tissue distribution) is? The compound is `O=C(Nc1cccc(Cl)c1)C1CCN(C(=O)c2ccc(Oc3ccccc3)cc2)CC1` 32.8

Record: `O=C(Nc1cccc(Cl)c1)C1CCN(C(=O)c2ccc3ccccc3c2)CC1` 9.4

---
Recorded content in the brain (tissue distribution) of `Cc1cc(C)cc(NC(=O)C2CCN(C(=O)c3ccc(Oc4ccccc4)cc3)CC2)c1` , please. 1.2

Next entry: `O=C(Nc1cccc(Cl)c1)C1CCN(C(=O)c2cccc(O)c2)CC1` 1.6

Cool, now `O=C(Nc1ccccc1)C1CCN(C(=O)c2ccc(Oc3ccccc3)cc2)CC1` 0.6
